Reported Growth Rate by item:
Tested on: HEK-293T
testDescription: Incucyte cell viability with HEK293T; note: filed as whole numbers so only -1 and 0 and 1 occur
Assay type: toxicity, cell-based
runParameters: human, 0 h, 10 µM, compound concentration 10 uM, replicate number 2, timepoint 0 hours
Please respond with just the number, no unit label.

Please review the entries below; each comes with its answer.
| compound | Growth Rate |
| --- | --- |
| CC(Cc1ccc(O)c(O)c1)C(C)Cc1ccc(O)c(O)c1 (stereo unspecified) [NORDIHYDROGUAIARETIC ACID] | 0 |
| COc1cc(N2CCC(O)CC2)ccc1Nc1cc(Nc2ccccc2S(=O)(=O)C(C)C)c2cc[nH]c2n1 | 1 |
| Cc1cn2cc(CC(=O)N3CCC4(CC3)CN(Cc3ccc(-n5nccn5)cc3Cl)C4)nc2s1 | 0 |

Incoming: Item under review: CC(C)c1ccc(CC(=O)N2CCC[C@@H](c3cccc(OC(C)(C)C(=O)O)c3)C2)cc1 . Reported Growth Rate?
Outgoing: 0

Incoming: Please give the result for C=CC(=O)Nc1cc(-n2c(=O)ccc3cnc4ccc(-c5ccc(NS(C)(=O)=O)cc5)cc4c32)ccc1C too.
Outgoing: 1

Incoming: Another compound: CN(C)CCCN1c2ccccc2CCc2ccccc21.Cl [IMIPRAMINE HYDROCHLORIDE]
Outgoing: 1

Incoming: Moving on to the next compound: CCN(CCO)CCCOc1ccc2c(Nc3cc(CC(=O)Nc4cccc(F)c4)[nH]n3)ncnc2c1
Outgoing: 1

Incoming: And for c1cc(CN2CCCNCCNCCCNCC2)ccc1CN1CCCNCCNCCCNCC1 ?
Outgoing: 0

Incoming: Next compound: CC(C)NCC(O)COc1cccc2ccccc12.Cl (stereo unspecified) [PROPRANOLOL HYDROCHLORIDE]
Outgoing: 0

---

System: Fibroblast
testDescription: Multiplex assay against human fibroblast
Format: toxicity, cell-based
runParameters: 12 h, 1 µM, compound concentration 1 uM, replicate 1
The label depends only on Population Mitochondria Different-Phenotype (%): Fulfilled if it is at least 4%, Not fulfilled if it is smaller.

Reference set (5 entries):
| compound | category |
| --- | --- |
| CCCc1cc(C)[nH]c(=O)c1CNC(=O)c1cc(-c2ccc(N3CCN(C(C)C)CC3)nc2)cc2c1cnn2C(C)C | Fulfilled |
| CN1C(=O)[C@@H](NC(=O)c2cc3ccccc3[nH]2)N=C(c2ccccc2)c2ccccc21 [DEVAZEPIDE] | Not fulfilled |
| CN(c1cc(C(F)(F)F)nc(OCCC(=O)O)n1)c1cccc2c1CCC2 | Fulfilled |
| CC(C)c1cc(Nc2nc(N3CCC[C@H](N)C3)ncc2C(N)=O)cc(C(C)C)n1 | Fulfilled |
| CC[C@H](Nc1ncnc2[nH]cnc12)c1nc2cccc(F)c2c(=O)n1-c1ccccc1 | Not fulfilled |

Incoming: // inclusive: Population Mitochondria Different-Phenotype (%) at least 4%? input: CCCCCNC(=N)N/N=C/c1c[nH]c2ccc(OC)cc12.O=C(O)/C=C\C(=O)O [TEGASEROD MALEATE]
Outgoing: Not fulfilled

Incoming: Also check C[C@@H](Oc1cc(-n2cnc3ccc(CN4CCN(C)CC4)cc32)sc1C(N)=O)c1ccccc1C(F)(F)F
Outgoing: Fulfilled

---

Tested on: HEK-293T
testDescription: Multiplex assay against HEK293T
Format: toxicity, cell-based
runParameters: human, 24 h, 1 µM, compound concentration 1 uM, replicate 1
Please mark met if the recorded Population Apoptotic (%) is equal to or greater than 40%, and not met if it falls below.

Answered examples (3):
| compound | assaySystem | category |
| --- | --- | --- |
| C=CC(=O)Nc1cc(-n2c(=O)ccc3cnc4ccc(-c5ccc(NS(C)(=O)=O)cc5)cc4c32)ccc1C | HEK-293T | met |
| N#CCNC(=O)c1ccc(-c2ccnc(Nc3ccc(N4CCOCC4)cc3)n2)cc1 | HEK-293T | not met |
| CCOc1ccn(-c2ccc(F)cc2)c(=O)c1C(=O)Nc1ccc(Oc2ccnc(N)c2Cl)c(F)c1 | HEK-293T | not met |

Incoming: Please indicate if the recorded Population Apoptotic (%) for Oc1cccc(-c2nc(N3CCOCC3)c3oc4ncccc4c3n2)c1 meets or exceeds 40%.
Outgoing: met

Incoming: Now give it for C[C@@H](Oc1cc(-n2cnc3ccc(CN4CCN(C)CC4)cc32)sc1C(N)=O)c1ccccc1C(F)(F)F too.
Outgoing: met

Incoming: Lookup CCCCCNC(=N)N/N=C/c1c[nH]c2ccc(OC)cc12.O=C(O)/C=C\C(=O)O [TEGASEROD MALEATE]
Outgoing: met

Incoming: Thanks! And Cc1c(Nc2ccc(S(=O)(=O)N3CCN(C)CC3)cc2F)nc2ccc(Nc3cnn(C4CC4)c3)cn2c1=O ?
Outgoing: not met

Incoming: Do the same for Cc1ccc(NC(=O)Nc2cc(C(F)(F)F)ccc2F)cc1Nc1ccc2c(c1)NC(=O)/C2=C\c1ccc[nH]1 please
Outgoing: not met

Values were extracted from ChEMBL document CHEMBL4689842.
